Give Kd binding ratio for every item shown.
study system: T1, CTLA4-Fc (Fitzgerald, #30R-CD152) (human, UniProt P16410 38-152, biotinylated where used as soluble reagent in the inhibition ELISAs)
T1 construct: Bought reagent; also called human CTLA-4 (Fitzgerald); biotinylated-CTLA4
T1 sequence (P16410 38-152 limits assumed): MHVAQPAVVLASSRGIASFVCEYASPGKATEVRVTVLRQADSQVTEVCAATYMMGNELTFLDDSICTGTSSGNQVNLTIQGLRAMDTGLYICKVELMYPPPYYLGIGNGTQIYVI
test protocol: SPR (Biacore); ratio [Kd for CD28]/[Kd for CTLA-4]
Please reply with the value in numeric form only.

Incoming: For the binder shown here, CD86 mutant 901 (ligand, Variant of the soluble extracellular domain of human CD86) LKIQAYFNETADLPCQFANSQNLTLSELVVFWQDQENLVLNEVYLGKEKFDSVHSKYMGRTSFDSDSWTLRLHNLQIKDKGIYQCVIHHKKPTGMIKIHEMNSELSVLT , give the reported Kd binding ratio.
Outgoing: 2.7

Incoming: Quick one: CD86 mutant 906 (ligand, Variant of the soluble extracellular domain of human CD86) LKIQAYINETADLPCQFANSQNLSLSELVVFWQDQENLVLNEVYLGKERFDSVDSKYMGRTSFDSDSWTLRLHNLQIKDKGFYQCIIHHKKPTGLVKIHEMNSELSVLA
Outgoing: 0.8

Incoming: Quick one: CD86 mutant 910 (ligand, Variant of the soluble extracellular domain of human CD86) LKIQAYFNETADLPCQFANSQNQSLSELVVFWQDQENLVLNEVYLGKEKFDSVDSKYMGRTSFDSDSWTLRLHNLQIKDKGIYQCIIHHKKPTGMVKIHEMNSELSVLA
Outgoing: 5.1

Incoming: Quick one: human wild-type CD86 (monomeric soluble extracellular domain), sample 'Wild type' (ligand, also called wild type protein) APLKIQAYFNETADLPCQFANSQNQSLSELVVFWQDQENLVLNEVYLGKEKFDSVHSKYMGRTSFDSDSWTLRLHNLQIKDKGLYQCIIHHKKPTGMIRIHQMNSELSVLA
Outgoing: 1.6

Incoming: Quick one: CD86 mutant 908 (ligand, Variant of the soluble extracellular domain of human CD86) LKIQAYFNETADLPCQFANSQNQSLSELVVFWQDQENLVLNEVYLGKEKFDSVHSKYMGRTSFDSDSWTLRLHNLQIKDKGIYQCIIHHKKPTGMVKIHEMNSELSVLA
Outgoing: 4.7

Incoming: Quick one: CD86 mutant 904 (ligand, Variant of the soluble extracellular domain of human CD86) LKIQAYFNETADLPCQFANSQNQSLSELIVFWQDQENLVLNEVYLGKERFDAVDSKYMGRTSFDSDSWTLRLHNLQIKDKGIYQCIIHHKKPSGMVKIHQMDSELSVLA
Outgoing: 6.8

Incoming: Quick one: CD86 mutant 938 (ligand, Variant of the soluble extracellular domain of human CD86) LKIQAYFNETADLPCQFANSQNQSLSELVVFWQDQENLILNEVYLGKEKFDSVHSKYMGRTSFDSDSWTLRLHNLQIKDKGIYQCIIHHKKPTGMVKIHQMNSELSVLA
Outgoing: 5.5

Incoming: Quick one: CD86 mutant 907 (ligand, Variant of the soluble extracellular domain of human CD86) LKIQAYFNETADLPCQFANSQNQSLSELVVFWQDQENLVLNEVYLGKEKFDSVHSKYMGRTSFDSDSWTLRLHNLQIKDKGLYQCIIHHKKPTGMIKIHEMNSELSVLA
Outgoing: 5.6

Incoming: Quick one: CD86 mutant 915 (ligand, Variant of the soluble extracellular domain of human CD86) LKIQAYFNETADLPCQFANSQNQSLSELVVFWQDQENLILNEVYLGKEKFDSVDSKYMGRTSFDSDSWTLRLHNLQIKDKGFYQCIIHHKKPSGLIKIHQMDSELSVLA
Outgoing: 1.9
